biological target: Human CatG (Homo sapiens); construct: purchased Elastin Products Company (Owensville, MO, USA); assay: Direct inhibition of CatG, chromogenic substrate (S-7388) hydrolysis assay, IC50 determination; type: biochemical; conditions: pH 7.4 tris buffer, 100 mM NaCl, 37 °C, 60 nM CatG, 750 µM S-7388; ± 1 S.E.; read-out: IC50
Sequence (P08311 21-255): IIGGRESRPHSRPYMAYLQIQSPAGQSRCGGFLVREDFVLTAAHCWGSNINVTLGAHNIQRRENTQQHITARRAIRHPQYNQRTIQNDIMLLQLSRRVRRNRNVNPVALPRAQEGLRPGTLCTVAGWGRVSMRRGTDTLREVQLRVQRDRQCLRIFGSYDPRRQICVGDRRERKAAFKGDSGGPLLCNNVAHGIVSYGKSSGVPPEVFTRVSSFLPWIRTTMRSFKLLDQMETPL
property: pIC50
Scale note: pIC50 = -log10(concentration in M).

INPUT: Could you share what pIC50 was measured for O=c1cc(-c2ccc(OS(=O)(=O)O)cc2)oc2cc(OS(=O)(=O)O)cc(OCc3ccc(COc4cc(OS(=O)(=O)O)cc5oc(-c6ccc(OS(=O)(=O)O)cc6)cc(=O)c45)nc3)c12 [NSGM 22] , tested on Human CatG (Homo sapiens)?
OUTPUT: 5.89

INPUT: Could you share what pIC50 was measured for CCOC(=O)c1c(C)oc2cc(OCc3ccccc3)c(OCCCOc3cc(OS(=O)(=O)O)cc4oc(-c5ccc(OS(=O)(=O)O)cc5)cc(=O)c34)cc12 [NSGM 30] , tested on Human CatG (Homo sapiens)?
OUTPUT: 4.72

INPUT: Could you share what pIC50 was measured for O=c1cc(-c2ccc(OS(=O)(=O)O)cc2)oc2cc(OS(=O)(=O)O)cc(OCc3ccc(-c4ccc(COc5cc(OS(=O)(=O)O)cc6oc(-c7ccc(OS(=O)(=O)O)cc7)cc(=O)c56)cc4)cc3)c12 [NSGM 23] , tested on Human CatG (Homo sapiens)?
OUTPUT: 5.47

INPUT: Could you share what pIC50 was measured for O=c1cc(-c2ccc(OS(=O)(=O)O)cc2)oc2cc(OS(=O)(=O)O)cc(OCc3cccc(COc4cc(OS(=O)(=O)O)cc5oc(-c6ccc(OS(=O)(=O)O)cc6)cc(=O)c45)c3)c12 [NSGM 21] , tested on Human CatG (Homo sapiens)?
OUTPUT: 4.99

* * *

Below: a set of entries, each annotated with reported pIC50.
biological target: Human CatG (Homo sapiens); construct: purchased Elastin Products Company (Owensville, MO, USA); assay: Direct inhibition of CatG, chromogenic substrate (S-7388) hydrolysis assay, IC50 determination; type: biochemical; details: pH 7.4 tris buffer, 100 mM NaCl, 37 °C, 60 nM CatG, 750 µM S-7388; ± 1 S.E.; read-out: IC50
Scale note: pIC50 = -log10(concentration in M).

>>> endpoint_value("O=c1c(OS(=O)(=O)O)c(-c2ccc(OS(=O)(=O)O)c(OS(=O)(=O)O)c2)oc2cc(OS(=O)(=O)O)cc(OCCCOc3cc(OS(=O)(=O)O)cc4oc(-c5ccc(OS(=O)(=O)O)c(OS(=O)(=O)O)c5)c(OS(=O)(=O)O)c(=O)c34)c12 [NSGM 24]")
6.68

INPUT: State the recorded pIC50 for this entry: O=c1cc(-c2ccc(OS(=O)(=O)O)cc2)oc2cc(OS(=O)(=O)O)cc(OCc3ccc(COc4cc(OS(=O)(=O)O)cc5oc(-c6ccc(OS(=O)(=O)O)cc6)cc(=O)c45)cc3)c12 [NSGM 19]
OUTPUT: 5.48

INPUT: State the recorded pIC50 for this entry: O=c1cc(-c2ccc(OS(=O)(=O)O)cc2)oc2cc(OS(=O)(=O)O)cc(OCC=CCOc3cc(OS(=O)(=O)O)cc4oc(-c5ccc(OS(=O)(=O)O)cc5)cc(=O)c34)c12 [NSGM 18]
OUTPUT: 5.33

INPUT: State the recorded pIC50 for this entry: O=c1c(OS(=O)(=O)O)c(-c2ccc(OS(=O)(=O)O)c(OS(=O)(=O)O)c2)oc2cc(OS(=O)(=O)O)cc(OCc3ccc(COc4cc(OS(=O)(=O)O)cc5oc(-c6ccc(OS(=O)(=O)O)c(OS(=O)(=O)O)c6)c(OS(=O)(=O)O)c(=O)c45)cc3)c12 [NSGM 25]
OUTPUT: 7.30
